Test: qHTS assay to identify small molecule antagonists of the estrogen receptor alpha (ER-alpha) signaling pathway using the BG1 cell line (AID 743080);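 also: BG1 cells stimulated with 17beta-estradiol alongside compound; nearly all actives have a fitted effect of over 25% in size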
Settings: BG1Luc4E2 ERE-luciferase antagonist mode, luminescence; series mostly up to 70.3 µM
Description: National Center for Advancing Translational Sciences [NCATS] NIH Chemical Genomics Center [NCGC] U.S. Environmental Protection Agency [EPA] National Institutes of Environmental Health Sciences [NIEHS] National Toxicology Program [NTP] U.S. Food and Drug Administration [FDA] Estrogen receptor (ER), a nuclear hormone receptor, plays an important role in development, metabolic homeostasis and reproduction. […]
Inconclusive results are not listed. Calls of active or inactive are those of the source. Calls follow the shape of the full dose curve.
# valid calls are active, inactive; nothing else

Below are worked cases with known answers.
Nc1ccncc1; inactive
CCCCCCCCC(=O)NCc1ccc(O)c(OC)c1; inactive
CC(C)c1ccc(CO)cc1; inactive
CCCCOCCOP(=O)(OCCOCCCC)OCCOCCCC; inactive
CCCCCCOC(=O)c1ccccc1C(=O)OCCCCCC; inactive

[ask] What is the recorded call for this molecule in the test? CC(C)C(=O)OCC(C)(C)C(OC(=O)C(C)C)C(C)C (configuration not stated)
[reply] inactive

[ask] What do you have for "C[C@]12CCC(=O)C(O)=C1CC[C@@H]1[C@@H]2CC[C@]2(C)C(=O)CC[C@@H]12" ?
[reply] inactive

[ask] # iterate: "O=S(=O)(Oc1ccc(Cl)cc1)c1ccc(Cl)cc1"
[reply] inactive

[ask] Please give the result for "Nn1cnnc1" too.
[reply] inactive

[ask] Similarly, "CC(C)Oc1cc(-n2nc(C(C)(C)C)oc2=O)c(Cl)cc1Cl" ?
[reply] active

[ask] What do you get for C=C(C)C(=O)OCC1CO1 (configuration not stated) ?
[reply] inactive

[ask] Continue with "Clc1nc(Cl)nc(Cl)n1"
[reply] inactive

[ask] Likewise for "COP(=O)(OC)OC" ?
[reply] inactive

[ask] Repeat with "O=P(O)(O)CCCl"
[reply] inactive

[ask] What about this molecule? "NC(=S)Nc1ccccc1"
[reply] inactive

[ask] "CCCCCCCCCCCOC(=O)c1ccccc1C(=O)OCCCCCCCCCCC" , same question.
[reply] inactive

[ask] Record: CCCCC(CC)COC(=O)Cl (configuration not stated)
[reply] inactive
